tested_on: METTL3/METTL14 complex (Homo sapiens)
measurement_notes: Competive inhibition of full length human METTL3/METTL14 expressed in Sf9 cells using single strand RNA 5'-AAGAACCGGACUAAGCU-3' and SAM as substrate incubated for 40 mins by HTRF assay
pIC50: −log10 of the molar value.
result_type: pIC50

{"compound": "CNC1CCC(O)(Cn2cnc3c(N)ncnc32)C(O)C1 (configuration not stated)", "tested_on": "METTL3/METTL14 complex (Homo sapiens)", "pIC50": 4.01}
{"compound": "CN1CCC(NC(=O)[C@H]2O[C@@H](n3cnc4c(N)ncnc43)[C@H](O)[C@@H]2O)CC1", "tested_on": "METTL3/METTL14 complex (Homo sapiens)", "pIC50": 4.19}

---

tested_on: N6-adenosine-methyltransferase catalytic/non-catalytic subunit (Homo sapiens, UniProt Q9HCE5+Q86U44)
Sequence (Q9HCE5 whole entry): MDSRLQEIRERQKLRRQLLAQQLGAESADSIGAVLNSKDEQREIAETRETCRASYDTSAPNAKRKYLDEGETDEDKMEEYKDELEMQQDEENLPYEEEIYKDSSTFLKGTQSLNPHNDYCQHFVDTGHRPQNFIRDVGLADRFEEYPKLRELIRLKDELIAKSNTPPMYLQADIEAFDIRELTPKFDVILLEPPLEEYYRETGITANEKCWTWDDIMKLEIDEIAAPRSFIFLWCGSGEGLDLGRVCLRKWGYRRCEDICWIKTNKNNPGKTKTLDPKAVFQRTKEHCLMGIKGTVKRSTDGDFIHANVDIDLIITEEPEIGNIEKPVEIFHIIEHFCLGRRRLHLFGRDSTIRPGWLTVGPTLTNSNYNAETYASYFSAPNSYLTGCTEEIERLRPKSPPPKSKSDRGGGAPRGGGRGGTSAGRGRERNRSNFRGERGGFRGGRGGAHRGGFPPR
Sequence (Q86U44 whole entry): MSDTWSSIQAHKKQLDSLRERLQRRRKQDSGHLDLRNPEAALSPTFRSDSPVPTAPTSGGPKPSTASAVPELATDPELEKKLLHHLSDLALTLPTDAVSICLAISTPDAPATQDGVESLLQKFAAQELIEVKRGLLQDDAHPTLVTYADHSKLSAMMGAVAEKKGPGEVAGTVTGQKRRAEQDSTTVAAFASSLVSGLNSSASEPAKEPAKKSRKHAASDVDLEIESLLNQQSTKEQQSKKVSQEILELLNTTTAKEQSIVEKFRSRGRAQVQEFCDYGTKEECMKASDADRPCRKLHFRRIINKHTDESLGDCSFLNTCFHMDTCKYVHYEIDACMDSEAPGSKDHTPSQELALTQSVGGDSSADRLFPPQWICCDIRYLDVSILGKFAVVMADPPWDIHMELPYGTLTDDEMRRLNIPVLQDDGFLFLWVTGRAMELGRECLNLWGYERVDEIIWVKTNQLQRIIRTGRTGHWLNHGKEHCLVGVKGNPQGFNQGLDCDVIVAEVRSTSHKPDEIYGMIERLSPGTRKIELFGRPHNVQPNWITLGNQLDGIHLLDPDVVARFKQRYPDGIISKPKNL
measurement_notes: Inhibition of full-length His-tagged METTL3/full length FLAG-tagged METTL14 (unknown origin) expressed in baculovirus expression system using synthetic RNA 5'P-uacacucgaucuggacuaaagcugcuc-3' and SAM as substrate preincubated for 10 mins followed by substrate addition and measured after 60 mins by RF/MS analysis
pIC50: −log10 of the molar value.
result_type: pIC50

{"sample_smiles": "CC1(C)CCN(Cc2ccc3nc(Cn4cc(-c5cc(Br)cc6[nH]ncc56)nn4)cn3c2)CC1", "pIC50": 8.10}
{"sample_smiles": "COc1ccc2[nH]ncc2c1-c1cn(Cc2cn3cc(CNCC4CCC4)ccc3n2)nn1", "pIC50": 8.21}
{"sample_smiles": "Nc1ncnc2c1ccn2[C@@H]1C[C@H](c2ccc3cc(CN4CCC5(CCC5)C4)[nH]c3c2)[C@@H](O)[C@H]1O", "pIC50": 8.21}
{"sample_smiles": "Nc1ncnc2c1c(Br)cn2[C@@H]1C[C@H](c2ccc3cc(CN4CCC5(CCC5)C4)[nH]c3c2)[C@@H](O)[C@H]1O", "pIC50": 8.21}
{"sample_smiles": "Nc1ncnc2c1c(Cl)cn2[C@@H]1C[C@H](c2ccc3cc(CNCC45CC(F)(C4)C5)[nH]c3c2)[C@@H](O)[C@H]1O", "pIC50": 8.21}
{"sample_smiles": "COc1cc(-c2cn(Cc3cn4cc(CNCC5(OC)CCC5)ccc4n3)nn2)c2cn[nH]c2c1", "pIC50": 8.21}

---

tested_on: METTL3/METTL14 complex
measurement_notes: Inhibition of METTL3/METTL14 (unknown origin)
result_type: IC50 (µM)
Report only the number, with the unit µM understood.

Problem: Consider the molecule shown here: CC1=NN(c2ccc(C)c(C)c2)C(=O)/C1=N\Nc1cccc(-c2cccc(C(=O)O)c2)c1 What is its recorded IC50?
Result: 15.3
